Experiment: In vitro nephrotoxicity, GGT release from primary human kidney cells
Type: cell-based
Conditions: pH 7.4
Starred links: 1 amine or outer side, 2 acyl side, 3 side chain; linkers in the order of their positions; H or OH if unused. Positions of bridges follow the written chain, without caps; N, C: chain ends. Non-standard residues stand in square brackets, D forms with d. Residues, ends and D or L forms follow the SMILES beside them. *: point of attachment. Decanoyl(3R-OH) = CCCCCCC[C@@H](O)CC(=O)*; azaDab = NCCN(N[*:1])C(=O)[*:2]; dDab = NCC[C@@H](N)C(=O)O; Dab = NCC[C@H](N)C(=O)O
# reported CC50; entries follow

>>> recorded_value("CCCCCCC[C@@H](O)CC(=O)NN(CCN)C(=O)N[C@H]1CCNC(=O)[C@H](CC(C)C)NC(=O)[C@H](CCN)NC(=O)[C@H](CCN)NC(=O)[C@H](CC(C)C)NC(=O)[C@@H](Cc2ccccc2)NC(=O)[C@H](CCN)NC1=O [compound 8639] ({Decanoyl(3R-OH)}-[azaDab][Dab][Dab][dF]L[Dab][Dab]L; lactam 2-C)")
"> 128 µg/mL"

API: the following record is the query input.
Query: Could you tell me which CC50 is on file for CCCCCCC[C@@H](O)CC(=O)N[C@H](CCN)C(=O)N[C@H]1CCNC(=O)[C@H](CC(C)C)NC(=O)[C@H](CCN)NC(=O)N(CCN)NC(=O)[C@H](CC(C)C)NC(=O)[C@@H](Cc2ccccc2)NC(=O)[C@H](CCN)NC1=O [compound 8641] ({Decanoyl(3R-OH)}-[dDab][Dab][Dab][dF]L[azaDab][Dab]L; lactam 2-C) ?
Result: > 128 µg/mL

###

System: P. aeruginosa GN_043, PmxR
Settings: P. aeruginosa GN_043, PmxR
Positions of bridges follow the written chain, without caps; N, C: chain ends. Non-standard residues stand in square brackets, D forms with d. Residues, ends and D or L forms follow the SMILES beside them. *: point of attachment. Butanoyl(4-OPh) = O=C(CCCOc1ccccc1)*; Heptanoyl(6-Me) = CC(C)CCCCC(=O)*; dDab = NCC[C@@H](N)C(=O)O; Octanoyl = CCCCCCCC(=O)*; dDap = NC[C@@H](N)C(=O)O; Dab = NCC[C@H](N)C(=O)O; X5 = O=C(CCCCCCCO)*
EXPERIMENTAL ENDPOINT: MIC P. aeruginosa GN_043, PmxR (µg/mL)
Give just the numeric value; µg/mL need not be written.

Look over these answered cases.
>>> recorded_value("CC(C)C[C@@H]1NC(=O)[C@H](CCN)NC(=O)[C@H](CCN)NC(=O)[C@H](Cc2ccccc2)NC(=O)[C@@H](CC(C)C)NC(=O)[C@H](CCN)NC(=O)[C@@H](NC(=O)[C@@H](CCN)NC(=O)CCCOc2ccccc2)CCNC1=O [compound 6521] ({Butanoyl(4-OPh)}-[dDab][Dab][Dab][dL]F[Dab][Dab]L; lactam 2-C)")
2
>>> recorded_value("CC(C)C[C@@H]1NC(=O)[C@H](CCN)NC(=O)[C@H](CCN)NC(=O)[C@H](Cc2ccccc2)NC(=O)[C@@H](CC(C)C)NC(=O)[C@H](CCN)NC(=O)[C@@H](NC(=O)[C@@H](CCN)NC(=O)CCCCCCCO)CCNC1=O [compound 6514] (X5-[dDab][Dab][Dab][dL]F[Dab][Dab]L; lactam 2-C)")
4
>>> recorded_value("CCCCCCCC(=O)N[C@H](CN)C(=O)N[C@H]1CCNC(=O)[C@H](CC(C)C)NC(=O)[C@H](CCN)NC(=O)[C@H](CCN)NC(=O)[C@H](CC(C)C)NC(=O)[C@@H](CC(C)C)NC(=O)[C@H](CCN)NC1=O [compound 8978] (Octanoyl-[dDap][Dab][Dab][dL]L[Dab][Dab]L; lactam 2-C)")
4

Query: Could you tell me which MIC P. aeruginosa GN_043, PmxR is on file for CC(C)CCCCC(=O)N[C@H](CCN)C(=O)N[C@H]1CCNC(=O)[C@H](CC(C)C)NC(=O)[C@H](CCN)NC(=O)[C@H](CCN)NC(=O)[C@H](CC(C)C)NC(=O)[C@@H](Cc2ccccc2)NC(=O)[C@H](CCN)NC1=O [compound 9290] ({Heptanoyl(6-Me)}-[dDab][Dab][Dab][dF]L[Dab][Dab]L; lactam 2-C) ?
Result: 1
